Test system: Spodoptera littoralis
Test: Insecticidal activity against Spodoptera littoralis assessed as mortality by greenhouse assay
Assay type: functional
quantity.measured: EC80 (µg/mL)
Give bare numbers, in µg/mL.

{"compound": "Cc1cc(C#N)cc(C(=O)NC(C)(C)CS(C)(=N)=O)c1NC(=O)c1cc(Br)nn1-c1ncccc1Cl (stereo not drawn)", "test.target": "Spodoptera littoralis", "unit.name": "µg/mL", "EC80": 0.8}
{"compound": "Cc1cc(Cl)cc(C(=O)NC(C)(C)CS(C)(=N)=O)c1NC(=O)c1cc(OCC(F)(F)F)nn1-c1ncccc1Cl (stereo not drawn)", "test.target": "Spodoptera littoralis", "unit.name": "µg/mL", "EC80": 0.8}
{"compound": "CNC(=O)c1cc(Cl)cc(C)c1NC(=O)c1cc(Br)nn1-c1ncccc1Cl", "test.target": "Spodoptera littoralis", "unit.name": "µg/mL", "EC80": 0.8}
{"compound": "CN=S(=O)(CC(C)NC(=O)c1cc(C#N)cc(C)c1NC(=O)c1cc(Br)nn1-c1ncccc1Cl)NN(C)C (stereo not drawn)", "test.target": "Spodoptera littoralis", "unit.name": "µg/mL", "EC80": 50}
{"compound": "Cc1cc(Cl)cc(C(=O)NC(C)(C)CS(C)(=O)=NC#N)c1NC(=O)c1cc(C(F)(F)F)nn1-c1ncccc1Cl (stereo not drawn)", "test.target": "Spodoptera littoralis", "unit.name": "µg/mL", "EC80": 0.8}

For every record below, what is its EC80?
1. CNS(=N)(=O)CC(C)NC(=O)c1cc(C#N)cc(C)c1NC(=O)c1cc(Br)nn1-c1ncccc1Cl (stereo not drawn)
2. Cc1cc(C#N)cc(C(=O)NC(C)(C)CS(C)(=O)=N[N+](=O)[O-])c1NC(=O)c1cc(Br)nn1-c1ncccc1Cl (stereo not drawn)
3. Cc1cc(C#N)cc(C(=O)NC(C)(C)CS(C)(=N)=O)c1NC(=O)c1cc(OCC(F)(F)F)nn1-c1ncccc1Cl (stereo not drawn)

Result:
1. 50
2. 12.5
3. 0.8

###

Test: Aqueous solubility of the compound at pH 7
Type: physicochemical
Conditions: buffer
quantity.measured: solubility (ppm)
Answers are plain numbers, in ppm.

{"compound": "CNC(=O)c1cc(Cl)cc(C)c1NC(=O)c1cc(Br)nn1-c1ncccc1Cl", "solubility / ppm": 1}
{"compound": "Cc1cc(C#N)cc(C(=O)NC(C)(C)CS(C)(=N)=O)c1NC(=O)c1cc(Br)nn1-c1ncccc1Cl (centres undefined)", "solubility / ppm": 42}

For every record below, what is its solubility?
1. CN=S(=O)(CC(C)NC(=O)c1cc(C#N)cc(C)c1NC(=O)c1cc(Br)nn1-c1ncccc1Cl)NOC (centres undefined)
2. Cc1cc(C#N)cc(C(=O)NC(C)(C)CS(C)(=N)=O)c1NC(=O)c1cc(OCC(F)(F)F)nn1-c1ncccc1Cl (centres undefined)

Result:
1: 17; 2: 361

###

Tested on: Spodoptera littoralis
Experiment: Insecticidal activity against Spodoptera littoralis assessed as mortality by greenhouse assay
Type: functional
quantity.measured: EC80
Please report the result as a number followed by the unit.

{"compound": "CNC(=O)c1cc(C#N)cc(C)c1NC(=O)c1cc(Br)nn1-c1ncccc1Cl [CYANTRANILIPROLE]", "value.measured": "3.1 µg/mL"}
{"compound": "CNS(=N)(=O)CC(C)NC(=O)c1cc(Cl)cc(C)c1NC(=O)c1cc(Br)nn1-c1ncccc1Cl (stereo unspecified)", "value.measured": "12.5 µg/mL"}
{"compound": "Cc1cc(C#N)cc(C(=O)NC(C)(C)CS(C)(=O)=NC#N)c1NC(=O)c1cc(Br)nn1-c1ncccc1Cl (stereo unspecified)", "value.measured": "50 µg/mL"}
{"compound": "CN=S(=O)(CC(C)NC(=O)c1cc(C#N)cc(C)c1NC(=O)c1cc(Br)nn1-c1ncccc1Cl)NOC (stereo unspecified)", "value.measured": "50 µg/mL"}
{"compound": "Cc1cc(C(F)(C(F)(F)F)C(F)(F)F)ccc1NC(=O)c1cccc(I)c1C(=O)NC(C)(C)CS(C)(=O)=O [FLUBENDIAMIDE]", "value.measured": "3.1 µg/mL"}

// moving on: another record for EC80
Ask: # return EC80 for Cc1cc(Cl)cc(C(=O)NC(C)(C)CS(C)(=N)=O)c1NC(=O)c1cc(C(F)(F)F)nn1-c1ncccc1Cl (stereo unspecified) , test system: Spodoptera littoralis
Result: 0.8 µg/mL

###

Assay: Aqueous solubility of the compound at pH 7
Assay type: physicochemical
Conditions: buffer
quantity.measured: solubility (ppm)
One number for each entry, in ppm.

Recorded solubility, per entry:
{"compound": "Cc1cc(Cl)cc(C(=O)NC(C)(C)CS(C)(=N)=O)c1NC(=O)c1cc(OCC(F)(F)F)nn1-c1ncccc1Cl (stereo not given)", "unit.name": "ppm", "value.measured": 295}
{"compound": "Cc1cc(C#N)cc(C(=O)NC(C)(C)CS(C)(=O)=NC#N)c1NC(=O)c1cc(Br)nn1-c1ncccc1Cl (stereo not given)", "unit.name": "ppm", "value.measured": 59}
{"compound": "CNC(=O)c1cc(C#N)cc(C)c1NC(=O)c1cc(Br)nn1-c1ncccc1Cl [CYANTRANILIPROLE]", "unit.name": "ppm", "value.measured": 14}
{"compound": "Cc1cc(C#N)cc(C(=O)NC(C)(C)CS(C)(=O)=N[N+](=O)[O-])c1NC(=O)c1cc(Br)nn1-c1ncccc1Cl (stereo not given)", "unit.name": "ppm", "value.measured": 29}
{"compound": "CNS(=N)(=O)CC(C)NC(=O)c1cc(Cl)cc(C)c1NC(=O)c1cc(Br)nn1-c1ncccc1Cl (stereo not given)", "unit.name": "ppm", "value.measured": 95}

For every record below, what is its solubility?
1. CN=S(=O)(CC(C)NC(=O)c1cc(C#N)cc(C)c1NC(=O)c1cc(Br)nn1-c1ncccc1Cl)NN(C)C (stereo not given)
2. CNS(=N)(=O)CC(C)NC(=O)c1cc(C#N)cc(C)c1NC(=O)c1cc(Br)nn1-c1ncccc1Cl (stereo not given)
3. Cc1cc(Cl)cc(C(=O)NC(C)(C)CS(C)(=O)=NC#N)c1NC(=O)c1cc(C(F)(F)F)nn1-c1ncccc1Cl (stereo not given)

Result:
48
96
14

For every record below, what is its solubility?
1. Cc1cc(Cl)cc(C(=O)NC(C)(C)CS(C)(=N)=O)c1NC(=O)c1cc(C(F)(F)F)nn1-c1ncccc1Cl (stereo not given)
2. Cc1cc(C(F)(C(F)(F)F)C(F)(F)F)ccc1NC(=O)c1cccc(I)c1C(=O)NC(C)(C)CS(C)(=O)=O [FLUBENDIAMIDE]

Result:
[196, 0.3]
